Across several publications, the following IC50 results were reported for Serine/threonine-protein kinase pim-1 (Homo sapiens).

For orientation, consider the following solved cases.
>>> reported("Cn1cc(-c2csc(-c3cccnc3)c2)cn1")
"~5 µM"
>>> reported("CC(C)(C)c1ccc(C=NNC(N)=O)cc1")
"> 10 µM"
>>> reported("NC(=O)NN=Cc1ccc(Cl)c(Cl)c1")
"> 10 µM"
>>> reported("NC(=O)NN=Cc1ccc(Br)cc1")
"> 10 µM"
>>> reported("NC(=O)N/N=C/c1ccc([N+](=O)[O-])o1")
"> 10 µM"
>>> reported("c1cncc(-c2csc(-c3cnco3)c2)c1")
"~5 µM"

# return IC50 of CCCCN(N=Cc1ccc([N+](=O)[O-])o1)C(N)=O (system: Serine/threonine-protein kinase pim-1 (Homo sapiens)) > 10 µM

Lab note: Serine/threonine-protein kinase pim-1 (Homo sapiens) assay, enter IC50 for C=C1CCCc2c(ccc3c2C(=O)C(=O)c2c(C)coc2-3)/C(C)=C/CCc2c1ccc1c2C(=O)C(=O)c2c(C)coc2-1 here 0.56 µM

Return reported IC50 for target or system Serine/threonine-protein kinase pim-1 (Homo sapiens), item COc1cc(-c2ccc3ncc(-c4cccc(C(=O)NCCN(C)C)c4)n3n2)ccc1O . 1.6 µM

Output reported IC50 of the compound CN(C)CCNc1cncc(-c2ccc3c(c2)/C(=C/c2cnc[nH]2)C(=O)N3)n1 on Serine/threonine-protein kinase pim-1 (Homo sapiens). 0.0056 µM
